Hi there, I'd appreciate the recorded TGI for every entry that follows.
- Test system: BT-549 breast
- ASSAY_PROCEDURE: NCI tumour cell line growth inhibition, 48 h
# number only, unit µM dropped from output

I'd like to know its TGI. The compound in question is N#Cc1c(-c2ccc(F)cc2)c(-c2ccc(F)cc2)nn(CCO)c1=O
39.9

State the recorded TGI for this entry: COc1cccc2c1C(=O)c1c(O)c3c(c(O)c1C2=O)C[C@@](O)(C(=O)CO)C[C@@H]3OC1CC(N)C(OC)C(C)O1 (some centres not stated)
1.47

Quick one: TGI of Cc1ccc(NC(=S)NNC(=O)c2cc(-c3ccccc3)nc3ccccc23)cc1 ?
32.7

Find the recorded TGI belonging to CC(=O)OC1O[C@@H](C(C)(C)O)CC[C@@H]1[C@H]1CC[C@@]2(C)C3=C(CC[C@]12C)[C@@]1(C)C[C@@H](OC(=O)CC(C)(O)CC(=O)O)[C@H](OC(C)=O)C(C)(C)C1CC3 (some centres not stated) and report it.
29.9

// query TGI value for entry O=c1c2c(-c3ccccc3)onc2n(-c2ccccc2)c(=O)n1-c1ccccc1
39.5

For the compound shown here, O=C(NCCCN(CCCCN(CCCNC(=O)C(F)(F)F)CCCc1ccccc1)CCCc1ccccc1)C(F)(F)F , give the reported TGI.
7.34

Item under review: Cc1nc2cnc(N)c(C#Cc3cncc(C(=O)Nc4ccc(CN5CCN(C)CC5)c(C(F)(F)F)c4)c3)c2nc1C . Reported TGI?
11.8

Which measured TGI value corresponds to N#C/C=C(\c1ccc([N+](=O)[O-])cc1)n1nnc2cc(Cl)c(Cl)cc21 ?
3.77

Suppose we examine the compound COC(=O)C1C=CN(N(C)C)C2=C1C(=O)c1c(O)cccc1C2=O (configuration not stated) ; what TGI value has been reported?
3.86
